From: ChEMBL document CHEMBL1811758

# system: UniProt P21397
# Sequence (P21397 whole entry): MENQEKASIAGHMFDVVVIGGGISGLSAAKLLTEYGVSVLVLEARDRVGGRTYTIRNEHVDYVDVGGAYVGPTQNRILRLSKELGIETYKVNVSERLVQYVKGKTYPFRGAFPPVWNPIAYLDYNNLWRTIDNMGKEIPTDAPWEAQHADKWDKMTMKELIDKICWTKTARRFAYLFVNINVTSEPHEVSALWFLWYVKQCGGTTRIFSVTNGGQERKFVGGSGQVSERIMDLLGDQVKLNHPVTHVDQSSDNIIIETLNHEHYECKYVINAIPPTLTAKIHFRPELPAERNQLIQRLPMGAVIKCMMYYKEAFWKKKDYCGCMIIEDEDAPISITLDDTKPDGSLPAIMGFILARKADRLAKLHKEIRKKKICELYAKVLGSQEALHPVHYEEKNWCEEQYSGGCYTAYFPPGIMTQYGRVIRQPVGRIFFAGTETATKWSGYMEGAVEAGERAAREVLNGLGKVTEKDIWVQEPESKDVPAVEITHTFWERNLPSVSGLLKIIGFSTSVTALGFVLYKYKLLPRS
# experiment summary: Inhibition of human recombinant MAOA expressed in insect cells using kynuramine substrate using Cheng and Prusoff equation by fluorescence spectroscopy
pKi: −log10 of the molar value.
measured parameter: pKi

Here are 3 compounds together with their reported answers.
O=C1NC(=O)c2cc(Oc3ccccc3)ccc21 : 5.81
O=C1NC(=O)c2cc(OCCCc3ccccc3)ccc21 : 6.34
O=C1NC(=O)c2cc(Oc3ccc4ccccc4c3)ccc21 : 6.70

(1) O=C1NC(=O)c2cc(OC/C=C/c3ccccc3)ccc21
(2) O=C1NC(=O)c2cc(Oc3ccc(Br)cc3)ccc21
input: Name the one with the greater pKi value, either 1 or 2 as given. Answer = label.
output: 2

---

# system: Amine oxidase [flavin-containing] B (Homo sapiens, UniProt P27338)
# Sequence (P27338 whole entry): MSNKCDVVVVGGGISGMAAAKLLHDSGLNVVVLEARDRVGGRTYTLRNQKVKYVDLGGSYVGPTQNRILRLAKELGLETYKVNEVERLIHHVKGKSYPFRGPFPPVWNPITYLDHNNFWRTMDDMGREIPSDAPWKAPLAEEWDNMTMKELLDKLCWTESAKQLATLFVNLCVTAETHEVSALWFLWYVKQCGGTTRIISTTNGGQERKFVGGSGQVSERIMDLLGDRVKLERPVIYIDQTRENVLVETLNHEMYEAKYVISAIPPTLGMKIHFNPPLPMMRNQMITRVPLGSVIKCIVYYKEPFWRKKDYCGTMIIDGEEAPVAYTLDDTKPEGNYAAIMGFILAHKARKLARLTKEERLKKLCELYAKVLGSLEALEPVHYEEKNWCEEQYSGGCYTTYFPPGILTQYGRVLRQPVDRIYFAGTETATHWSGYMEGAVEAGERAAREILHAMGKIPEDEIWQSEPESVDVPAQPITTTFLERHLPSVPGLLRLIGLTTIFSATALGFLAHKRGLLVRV
# experiment summary: Inhibition of human recombinant MAOB expressed in insect cells using kynuramine substrate by fluorescence spectroscopy
measured parameter: IC50 (nM)

Example compounds with recorded IC50:
O=C1NC(=O)c2cc(Oc3ccc(Br)cc3)ccc21 : 55
O=C1NC(=O)c2cc(OC/C=C/c3ccccc3)ccc21 : 46

(a) O=C1NC(=O)c2cc(Oc3ccc4ccccc4c3)ccc21
(b) O=C1NC(=O)c2cc(Oc3ccccc3)ccc21
(c) O=C1NC(=O)c2cc(OCCCc3ccccc3)ccc21
(d) O=C1NC(=O)c2ccccc21 [PHTHALIMIDE]
input: Rank by IC50 (largest to smallest). Please respond with the labels ordered as the question requires.
output: d, b, c, a

---

# Species: Homo sapiens
# experiment summary: Selectivity index, ratio of Ki for human recombinant MAOA to Ki for human recombinant MAOB
measured parameter: Ratio Ki

Known results for compounds:
O=C1NC(=O)c2cc(OCCCc3ccccc3)ccc21 : 21
O=C1NC(=O)c2cc(Oc3ccc4ccccc4c3)ccc21 : 17
O=C1NC(=O)c2cc(OC/C=C/c3ccccc3)ccc21 : 120

(A) O=C1NC(=O)c2cc(Oc3ccccc3)ccc21
(B) O=C1NC(=O)c2cc(Oc3ccc(Br)cc3)ccc21
input: When their Ratio Ki values are compared, which is larger, A or B ? Provide the label of your selected option as the answer.
output: B

---

# system: UniProtKB P27338
# experiment summary: Inhibition of human recombinant MAOB expressed in insect cells using kynuramine substrate using Cheng and Prusoff equation by fluorescence spectroscopy
measured parameter: Ki (nM)

O=C1NC(=O)c2cc(Oc3ccc(Br)cc3)ccc21 : 24
O=C1NC(=O)c2cc(OC/C=C/c3ccccc3)ccc21 : 20

(P) O=C1NC(=O)c2cc(OCCCc3ccccc3)ccc21
(Q) O=C1NC(=O)c2cc(Oc3ccc4ccccc4c3)ccc21
(R) O=C1NC(=O)c2cc(Oc3ccccc3)ccc21
input: List these items ordered by Ki, big to small. Order the labels as requested and list them.
output: R, P, Q
(R: 1070 nM, P: 20 nM, Q: 10 nM)
